System: preadipocytes
Assay: Caspase assay in preadipocytes
Type: cell-based, human
Details: untreated control set equal to 1.0
In the oligonucleotide strings, read from the 5' end, every base follows the letter of its sugar. An asterisk marks phosphorothioate; unmarked linkages are phosphodiester. Other units and linkages are bracketed, terminal groups are in braces. A string of capitals states the bases alone. e = 2'-O-(2-methoxyethyl) (MOE); [5mC] = 5-methylcytosine
propertyLabel: Fold Increase over UTC (caspase activity) (fold over UTC)
Lab book: enter the figure in fold over UTC, no units written.

Sample records with Fold Increase over UTC (caspase activity):
1. 327925 (antisense eT*eA*eG*e[5mC]*eT*eG*eG*eT*eT*eG*eA*eA*eG*eG*eG*eG*eA*e[5mC]*e[5mC]*eA*eA) [compound 327925] = 2.0
2. 327931 (antisense eA*eA*e[5mC]*e[5mC]*eA*eT*eA*e[5mC]*eA*eA*e[5mC]*e[5mC]*eT*eA*e[5mC]*eT*eA*e[5mC]*e[5mC]*eT*e[5mC]*eA) [compound 327931] = 1.5
3. 327967 (antisense eA*e[5mC]*eT*eG*eT*eA*e[5mC]*eA*eA*eA*e[5mC]*eT*eA*e[5mC]*eT*eA*e[5mC]*e[5mC]*eT*e[5mC]*eA) [compound 327967] = 1.5
4. 327922 (antisense eT*e[5mC]*eA*eG*eT*eT*eT*eT*eG*e[5mC]*eA*eT*eG*eG*eA*eT*eT*eT*eG*e[5mC]*eA*e[5mC]*eA) [compound 327922] = 1.0
5. 327942 (antisense e[5mC]*e[5mC]*eA*eT*e[5mC]*eT*eT*eT*eA*e[5mC]*e[5mC]*eA*eG*eA*e[5mC]*eA*eG*eT*eG*eT*eT) [compound 327942] = 1.0
6. 327926 (antisense eA*e[5mC]*eT*eA*eT*eG*e[5mC]*eA*eA*e[5mC]*e[5mC]*eT*eA*e[5mC]*eT*eA*e[5mC]*e[5mC]*eT*e[5mC]*eT) [compound 327926] = 1.8

Problem: Form field: reported Fold Increase over UTC (caspase activity) of 327890 (antisense eA*eG*e[5mC]*eA*e[5mC]*eA*eA*eA*e[5mC]*eT*eA*e[5mC]*eT*eA*e[5mC]*e[5mC]*eT*e[5mC]*eA) [compound 327890]
Solution: 1.3

Problem: Fill in: Fold Increase over UTC (caspase activity) of 327941 (antisense eA*eA*e[5mC]*e[5mC]*e[5mC]*eA*e[5mC]*e[5mC]*eG*eA*e[5mC]*eA*eG*e[5mC]*eA*eA*eT*eG*eA*eA*eT*eG*eT*eT) [compound 327941] is ___
Solution: 1.3

Problem: Entry under review: 327955 (antisense eG*e[5mC]*e[5mC]*e[5mC]*eT*eT*eT*e[5mC]*eA*eT*e[5mC]*eA*eT*eT*eG*e[5mC]*eA*e[5mC]*eT*eG) [compound 327955] . Reported Fold Increase over UTC (caspase activity)?
Solution: 4.3

Problem: Form field: reported Fold Increase over UTC (caspase activity) of 327893 (antisense eA*eA*e[5mC]*e[5mC]*eA*e[5mC]*eA*e[5mC]*eA*eA*e[5mC]*e[5mC]*eT*eA*e[5mC]*eT*eA*e[5mC]*e[5mC]*eT*e[5mC]*eA) [compound 327893]
Solution: 1.3

* * *

Test system: follistatin
Test: Follistatin mRNA expression in HepG2 cells
Assay type: cell-based, human
Settings: Experiment 4, insulin-sensitization: HepG2 cells treated with 1 nM insulin for four hours, 48 h post-transfection; mRNA by real-time PCR
In the oligonucleotide strings, read from the 5' end, every base follows the letter of its sugar. An asterisk marks phosphorothioate; unmarked linkages are phosphodiester. Other units and linkages are bracketed, terminal groups are in braces. A string of capitals states the bases alone. e = 2'-O-(2-methoxyethyl) (MOE); [5mC] = 5-methylcytosine; d = 2'-deoxy (DNA)
Recorded Follistatin (% UTC) by entry
Response body: numeric value in % UTC, unit text excluded.

Example substances with recorded Follistatin (% UTC):
1) 328691 (e[5mC]*e[5mC]*e[5mC]*e[5mC]*eA*dT*d[5mC]*dT*dT*dA*dG*d[5mC]*dA*dT*d[5mC]*eT*eA*eA*eG*eG) [compound 328691] = 104
2) 328759 (antisense eG*eA*eG*eG*eG*dA*dT*dT*dG*dT*dA*dT*dG*dA*dA*e[5mC]*eA*eT*e[5mC]*eT) [compound 328759] = 224
3) 328765 (antisense eG*eA*e[5mC]*eA*eA*dA*d[5mC]*dT*d[5mC]*dA*dG*d[5mC]*dT*dA*dT*eA*eT*eT*eG*eT) [compound 328765] = 97

Problem: So what's the measured Follistatin (% UTC) for this one? 328773 (antisense eT*eA*e[5mC]*eT*eT*dT*dA*d[5mC]*dT*d[5mC]*d[5mC]*dA*dA*dG*dG*eT*eT*eT*eT*eA) [compound 328773]
Solution: 148

Problem: Can you look up the measured Follistatin (% UTC) of 328779 (antisense eT*eG*eT*eT*eT*dG*dT*d[5mC]*dT*d[5mC]*d[5mC]*dA*dA*dG*dA*eA*eA*e[5mC]*eG*eT) [compound 328779] for me?
Solution: 119

Problem: Param item = 328761 (antisense eG*e[5mC]*eA*eG*eG*d[5mC]*dT*dA*dA*dA*dA*dG*dA*dA*dA*eT*eA*eA*eG*e[5mC]) [compound 328761] ; retrieve measured Follistatin (% UTC).
Solution: 98

Problem: Given the entry 186515 (antisense eA*eG*eG*eT*eA*dG*d[5mC]*dT*dT*dT*dG*dA*dT*dT*dA*eT*eG*eT*eA*eA) [compound 186515] , report its measured Follistatin (% UTC).
Solution: 39

Problem: Please look up its Follistatin (% UTC): 328384 (eT*e[5mC]*eA*e[5mC]*eG*dT*dG*dG*dA*dG*dA*dG*dG*dA*dG*eT*eT*eA*eA*eA; antisense) [compound 328384]
Solution: 121

Problem: // Follistatin (% UTC) lookup, key: 328677 (eT*e[5mC]*e[5mC]*eT*eG*dG*dA*dT*dG*dA*dT*dA*dT*d[5mC]*dT*eA*e[5mC]*e[5mC]*eT*e[5mC]; antisense) [compound 328677]
Solution: 118

Problem: # lookup: Follistatin (% UTC) of 328685 (e[5mC]*eG*eG*e[5mC]*e[5mC]*dG*dG*dA*dG*d[5mC]*d[5mC]*dA*dT*dA*dG*eA*e[5mC]*eT*e[5mC]*eG; antisense) [compound 328685]
Solution: 157

Problem: For the substance shown here, 341813 (antisense AGACACGTGCACTGTAGA; all 2'-MOE, all phosphorothioate, methylation of C not given here) [compound 341813] , give the reported Follistatin (% UTC).
Solution: 102

Problem: Query (substance): 340362 (antisense GACTGTTGAATCTCATGGCA; 5-10-5 gapmer, wing sugar and linkages not given here, further chemistry not given here) [compound 340362] ; field requested: Follistatin (% UTC)
Solution: 119

* * *

Test system: PEPCK-c
Experiment: PEPCK-c mRNA expression in HepG2 cells
Format: cell-based, human
Details: Experiment 2, insulin treated: HepG2 cells transfected with oligomeric compound, 1 nM insulin for four hours; UTC + 1 nM insulin = 100
In the oligonucleotide strings, read from the 5' end, every base follows the letter of its sugar. An asterisk marks phosphorothioate; unmarked linkages are phosphodiester. Other units and linkages are bracketed, terminal groups are in braces. A string of capitals states the bases alone. e = 2'-O-(2-methoxyethyl) (MOE); [5mC] = 5-methylcytosine; d = 2'-deoxy (DNA)
propertyLabel: PEPCKc mRNA expression
// return a plain number; no unit text

1. 327911 (antisense eG*e[5mC]*eT*eA*e[5mC]*e[5mC]*eT*eG*e[5mC]*eA*e[5mC]*eT*eG*eT*eA*eA*eG*e[5mC]*eA*e[5mC]*eT*eT*eT*eT) [compound 327911] = 78

Problem: Which PEPCKc mRNA expression reading was recorded for the substance 328342 (e[5mC]*eA*eA*eT*eT*dG*d[5mC]*dG*d[5mC]*dT*dA*d[5mC]*dA*dG*dA*eA*e[5mC]*eT*eG*eT) [compound 328342] ?
Solution: 39

Problem: What value of measured PEPCKc mRNA expression is listed for 328396 (antisense e[5mC]*eT*eG*eG*eT*dT*dG*dG*dG*dT*dA*dT*dG*dA*dG*eA*e[5mC]*eA*eG*eA) [compound 328396] ?
Solution: 65

* * *

Test system: Glut4
Experiment: Glut4 mRNA expression in adipocytes (real-time PCR)
Type: cell-based, human
Conditions: Table 18; differentiating adipocytes; control = treatment with ISIS 342673
In the oligonucleotide strings, read from the 5' end, every base follows the letter of its sugar. An asterisk marks phosphorothioate; unmarked linkages are phosphodiester. Other units and linkages are bracketed, terminal groups are in braces. A string of capitals states the bases alone. e = 2'-O-(2-methoxyethyl) (MOE); [5mC] = 5-methylcytosine
propertyLabel: GLUT4 mRNA

These solved cases illustrate the format of a correct answer.
1) 328110 (antisense eG*eA*eT*eA*eA*eA*eG*e[5mC]*e[5mC]*eA*eA*eT*eA*eA*eA*e[5mC]*eT*eG*eT*e[5mC]*eA) [compound 328110] = 104.7 percentage of control
2) 328111 (antisense eT*e[5mC]*e[5mC]*eG*eA*eG*eT*e[5mC]*eG*eG*eA*eG*eG*eA*eG*eG*eA*eG*eG*eA*eA) [compound 328111] = 59.6 percentage of control
3) 328100 (antisense eA*eA*eT*e[5mC]*eT*e[5mC]*eT*eG*e[5mC]*eA*eG*eG*e[5mC]*eA*eA*eA*eT*eG*eT*eG*eA) [compound 328100] = 74.2 percentage of control
4) 341804 (antisense ATCTGCACTGTCAGCACTTT; all 2'-MOE, all phosphorothioate, methylation of C not given here) [compound 341804] = 73.6 percentage of control

Problem: Reported GLUT4 mRNA for Glut4, given 328103 (antisense e[5mC]*e[5mC]*e[5mC]*eA*eA*eT*eA*eT*e[5mC]*eA*eA*eA*e[5mC]*eA*eT*eA*eT*e[5mC]*eA) [compound 328103] ?
Solution: 94.3 percentage of control
